# Assay summary: Estimation of water solubility
# Format: physicochemical
# Test conditions: visual inspection, 10 mg sample
Endpoint: Estimated Water Solubility

Reference set, count: 5
COc1cccc2[nH]c3c4c(c5c(c3c12)C(=O)N(CN1CCN(C)CC1)C5=O)CCC4 [Sample 31-2] :: >100 mg/mL
COc1cccc2[nH]c3c4c(c5c(c3c12)C(=O)N(CN1CCN(C)CC1)C5=O)CCC4 [Sample 13-8] :: >100 mg/mL
COc1cccc2[nH]c3c4c(c5c(c3c12)C(=O)N(CN1CCN(C)CC1)C5=O)CCC4 [Sample 13-6] :: >100 mg/mL
COc1cccc2[nH]c3c4c(c5c(c3c12)C(=O)N(CN1CCN(C)CC1)C5=O)CCC4 [Sample 39-4] :: >100 mg/mL
COc1cccc2[nH]c3c4c(c5c(c3c12)C(=O)N(CN1CCN(C)CC1)C5=O)CCC4 [39-1(2)] :: ~25 mg/mL

input: Sample COc1cccc2[nH]c3c4c(c5c(c3c12)C(=O)N(CN1CCN(C)CC1)C5=O)CCC4 [Sample 30-4] — what was its Estimated Water Solubility?
output: >100 mg/mL

input: Fill in the blank: the reported Estimated Water Solubility of COc1cccc2[nH]c3c4c(c5c(c3c12)C(=O)N(CN1CCN(C)CC1)C5=O)CCC4 [Sample 13-3] is ____.
output: 50 to 100 mg/mL

input: Given COc1cccc2[nH]c3c4c(c5c(c3c12)C(=O)N(CN1CCN(C)CC1)C5=O)CCC4 [Sample 13-4] , state its recorded Estimated Water Solubility.
output: <10 mg/mL
